ASSAY_SUMMARY: viability loss with induced miR-34 in A549 – imaging, A549 dox-inducible miR-34, nuclei and caspase counts, primary screen (AID 1347080)
RECORDED_CONDITIONS: A549 miR-34 inducible, Hoechst nuclei count, 48 h; stronger effect = lower value; cell number ratio, induced over uninduced
REPORTED_PROPERTY: fold change
Answers are plain numbers.

C[C@H](CCC(=O)NCC(=O)O)[C@H]1CC[C@H]2[C@@H]3[C@H](O)C[C@@H]4C[C@H](O)CC[C@]4(C)[C@H]3C[C@H](O)[C@]12C
0.862

Could you report fold change for every entry in the following list?
1. CS(=O)(=O)c1ccc(C(=N)N)cc1
2. O=[N+]([O-])c1ccc(CNc2nc(NCc3cccc(C(F)(F)F)c3)nc3nc[nH]c23)cc1
3. COc1cccc2c(=O)n(C(C)Cn3cccn3)cnc12 (stereo not drawn)
4. CCCCC(F)(F)C(=O)CCC1C(O)CC(=O)C1CCCCCCC(=O)O (stereo not drawn)
5. CC(C)=CCC[C@](C)(OC1OC(COC2OCC(O)C(O)C2O)C(O)C(O)C1O)C1CC[C@]2(C)[C@@H]1C(O)C[C@H]1[C@@]3(C)CCC(OC4OC(CO)C(O)C(O)C4O)C(C)(C)[C@@H]3CC[C@]12C (stereo partly drawn)

## Output
0.887
1.02
0.936
0.926
0.96

Could you report fold change for every entry in the following list?
1. CSCC[C@H](NC(=O)[C@H](Cc1ccccc1)NC[C@@H](NC[C@@H](N)CS)C(C)C)C(=O)O
2. Cc1nc(-c2ccnc(N)n2)cn1Cc1c(Cl)cccc1Cl

## Output
0.931
0.853

----------
Test system: Hepatitis C virus NS3 helicase
ASSAY_SUMMARY: blockers of NS3h binding to ssDNA – biochemical, fluorescence polarization, LOPAC1280 library, primary screen (AID 687035)
RECORDED_CONDITIONS: Purified HCV NS3 helicase, Cy5-dT15 ssDNA binding fluorescence polarization; stronger effect = higher value; concentration not given here
Provide the recorded inhibition for the entries that follow.
Numbers only, in %.

Solved cases below.
COc1ccc2c(c1)c(CC(=O)O)c(C)n2C(=O)c1ccccc1
-2
CSc1nc(N)c2ncn([C@@H]3O[C@H](COP(=O)(O)OP(=O)(O)O)[C@H](O)C3O)c2n1 (stereo partly specified)
33
COc1ccccc1N1CCN(CCN(C(=O)c2ccc(F)cc2)c2ccccn2)CC1
-4
N=S(=O)(O)Cc1noc2ccccc12
1

Could you report inhibition for every entry in the following list?
1. CN(C)C(N)=NCCC[C@H](N)C(=O)O
2. NC(=O)c1ccccc1
3. COc1ccc(-c2cc3ncc(C)n3c(Nc3ncccc3C(N)=O)n2)cc1OC
4. O=C(Nc1cccc(C(=O)Nc2ccc(S(=O)(=O)O)c3cc(S(=O)(=O)O)cc(S(=O)(=O)O)c23)c1)Nc1cccc(C(=O)Nc2ccc(S(=O)(=O)O)c3cc(S(=O)(=O)O)cc(S(=O)(=O)O)c23)c1
5. Oc1ccccc1O
6. NC(N)=N[C@@H](CCC(=O)O)C(=O)O

## Output
-2
0
-1
91
-1
-3

----------
Provide the recorded fold change for the entries that follow.
ASSAY_SUMMARY: viability loss with induced miR-34 in A549 – imaging, A549 dox-inducible miR-34, nuclei and caspase counts, primary screen (AID 1347080)
RECORDED_CONDITIONS: A549 miR-34 inducible, Hoechst nuclei count, 48 h; measured here: relative caspase fold change +Dox/-Dox
Answers are plain numbers.

Solved cases below.
COc1cccc2c(=O)n(Cc3ccc4nonc4c3)cnc12
1.93
O=C(c1ccc2c(c1)OCCO2)N1CCCCC1
1.38
CCOC(=O)C(CCc1ccccc1)NC(C)C(=O)N1Cc2cc(OC)c(OC)cc2CC1C(=O)O (stereo not given)
0.414
CC1C[C@@H]2[C@@H](C(O)C[C@@]3(C)[C@H]2CC[C@@]3(O)C(=O)CO)[C@@]2(C)C=CC(=O)C=C12 (stereo not given in full)
1.42
COc1ccc(S(=O)(=O)N(C(C)=O)c2ccccc2C=Cc2cc[n+]([O-])cc2)cc1
0.723
N[C@@H](Cc1cnc[nH]1)C(=O)O
1.08
CCCCCC(=O)CC[C@@H]1[C@@H](C/C=C\CCCC(=O)O)[C@@H](O)C[C@H]1O
1.4
Cc1nc(CCNC(=O)Nc2nnc(-c3cccs3)s2)sc1C
1.44

Could you report fold change for every entry in the following list?
1. CCC(C)C(NC(=O)C(CCC(=O)O)NC(=O)C(CC(C)C)NC(=O)C1CN=C(C(N)C(C)C)S1)C(=O)NC1CCCCNC(=O)C(CC(N)=O)NC(=O)C(CC(=O)O)NC(=O)C(Cc2cnc[nH]2)NC(=O)C(Cc2ccccc2)NC(=O)C(C(C)CC)NC(=O)C(CCCN)NC1=O (stereo not given)
2. O=C1CC(=O)c2c(Cl)c(Cl)c(Cl)c(Cl)c21
3. CNC(=O)C(Cc1ccccc1)NC(=O)C(CC(C)C)C(CSc1cccs1)C(=O)NO (stereo not given)
4. Cc1cc(C(=O)N2CCc3[nH]nc(COc4ccccc4)c3C2)c(C)o1
5. N#C/C(=C\c1ccc(O)c(O)c1)C(=O)NCCCNC(=O)/C(C#N)=C/c1ccc(O)c(O)c1
6. CCN1CCN(Cc2ccc(-c3cc4c(NC(C)c5ccccc5)ncnc4[nH]3)cc2)CC1 (stereo not given)
7. CC(=O)SCC[N+](C)(C)C

## Output
1. 0.927
2. 0.472
3. 0.442
4. 1.21
5. 1.18
6. 0.932
7. 2.3

Could you report fold change for every entry in the following list?
1. CC(=O)SC1CC2=CC(=O)CC[C@]2(C)C2CC[C@@]3(C)C(CC[C@@]34CCC(=O)O4)C12 (stereo not given in full)
2. CCCCC/C=C\C/C=C\CCCCCCCC(N)=O

## Output
[1.82, 1.16]

Could you report fold change for every entry in the following list?
1. Cc1cn(C2OC(CO)C(O)C2F)c(=O)[nH]c1=O (stereo not given)
2. Cc1cc(C)c(C=C2C(=O)Nc3ccccc32)[nH]1
3. C=C1C[C@@]2(O)O[C@@]3(CC2C(C)C)C(C)CC[C@@H]13 (stereo not given in full)

## Output
0.942
0.528
0.924

----------
Tested on: Hepatitis C virus NS3 helicase
ASSAY_SUMMARY: blockers of NS3h binding to ssDNA – biochemical, fluorescence polarization, LOPAC1280 library, primary screen (AID 687035)
RECORDED_CONDITIONS: Purified HCV NS3 helicase, Cy5-dT15 ssDNA binding fluorescence polarization; stronger effect = higher value; concentration not given here
REPORTED_PROPERTY: inhibition (%)
One number for each entry, in %.

Solved cases below.
C[C@H]1CC2C3CCC4=CC(=O)C=C[C@]4(C)[C@@]3(Cl)[C@@H](O)C[C@]2(C)[C@@]1(O)C(=O)CO (stereo partly specified)
-3
Cc1cc2c(cc1Cl)N(C(=O)Nc1ccc(Oc3cccnc3C)nc1)CC2
-2
Nc1ccc(CCNc2ncnc3c2ncn3C2OC(CO)C(O)C2O)cc1 (stereo unspecified)
-1
CC(C)C[C@H](NC(=O)[C@H](O)[C@H](N)Cc1ccccc1)C(=O)O
-2
NC1C=CC=C(C(=O)O)C1 (stereo unspecified)
0

## Input Need inhibition of Cc1cc(NC(=O)Nc2ccc3c(ccn3C)c2)sn1 , thanks.
## Output -1

----------
ASSAY_SUMMARY: RCMB18 cell growth, single agent and combined, cisplatin and BGB IC40 combos (AID 1671462);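 further: cells exposed to compound for four days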
RECORDED_CONDITIONS: RCMB18 medulloblastoma cells, single agent, at 5 µM, stronger effect = higher value
Classify by measured inhibition: label 1 if it is equal to or exceeds 30%, label 0 if it is smaller.

CCC1(O)C(=O)OCc2c1cc1n(c2=O)Cc2cc3cc(O)ccc3nc2-1 (centres undefined)
label 1
O=C(O)c1cc2cccc([N+](=O)[O-])c2[nH]1
label 0

## Input Please check the record Nc1nc(NC2CC2)cc(-c2cccc(Cl)c2Cl)n1 and state if its inhibition is at or above 30%.
## Output label 0

## Input Please check the record O=C(CCSc1nc2ccccc2c(=O)[nH]1)NC1CCC(c2nnc(-c3ccccc3)o2)CC1 (centres undefined) and state if its inhibition is at or above 30%.
## Output label 0

## Input Please check the record CC(C)(C#N)c1ccc(N2C(=O)OCc3cnc4ccc(-c5cnc6ccccc6c5)cc4c32)cc1 and state if its inhibition is at or above 30%.
## Output label 0

## Input Please check the record CC1OC(CC(=O)O)CC2=C1C(=O)c1c(O)cccc1C2=O (centres undefined) and state if its inhibition is at or above 30%.
## Output label 1

----------
ASSAY_SUMMARY: growth inhibition, single agents and combos, HTB85, cell-based, BGB or cisplatin IC20 combos, synergistic combos for chromothripsis tumors (AID 1671453);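 further: cells exposed for 96 hours before readout; 0% = vehicle DMSO and 100% = high DMSO killing control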
RECORDED_CONDITIONS: HTB85 osteosarcoma cells, drug combinations, measured here: with BGB IC20, at 0.5 µM, stronger effect = higher value
REPORTED_PROPERTY: inhibition (%)
One number for each entry, in %.

Solved cases below.
O=C(CCCCCCC(=O)NO)NO
-21.4
O=C(O)c1cc2cccc([N+](=O)[O-])c2[nH]1
-41.2
NC(=O)c1cccc2cn(-c3ccc(C4CCCNC4)cc3)nc12 (stereo unspecified)
-26.2
C#CCC(CCCCCC)C(=O)O (stereo unspecified)
4.58
CO[C@H]1/C=C/O[C@@]2(C)Oc3c(C)c(O)c4c(O)c(c5c(c4c3C2=O)=NC2(CCN(CC(C)C)CC2)N=5)NC(=O)/C(C)=C\C=C\[C@H](C)[C@H](O)[C@@H](C)[C@@H](O)[C@@H](C)[C@H](OC(C)=O)[C@@H]1C
19
O=C(CCCCCCC(=O)Nc1ccc(I)cc1)NO
-30.7

Could you report inhibition for every entry in the following list?
1. CC1OC(n2cc(F)c(=O)[nH]c2=O)C(O)C1O (stereo unspecified)
2. CC(C)OC(=O)[C@H](C)NP(=O)(OC[C@H]1O[C@@H](n2ccc(=O)[nH]c2=O)C(C)(F)[C@@H]1O)Oc1ccccc1 (stereo partly specified)
3. CC(=O)C1(O)Cc2c(O)c3c(c(O)c2C(OC2CC(N)C(O)C(C)O2)C1)C(=O)c1ccccc1C3=O (stereo unspecified)
4. Cn1cnc2[nH]c(=O)[nH]c(=O)c21
5. CCC1(O)C(=O)OCc2c1cc1n(c2=O)Cc2cc3cc(O)ccc3nc2-1 (stereo unspecified)
6. Nc1ccn(C2CCC(CO)O2)c(=O)n1 (stereo unspecified)

## Output
1. -38.6
2. -19.6
3. 99.4
4. -76.7
5. 97.4
6. -29.8

Could you report inhibition for every entry in the following list?
1. COc1ccccc1S(=O)(=O)Nc1ccc2c(c1)CN(C)C(=O)N2
2. Nc1nc(NC2CC2)cc(-c2cccc(Cl)c2Cl)n1
3. Cc1cn(C2CC(O)C(COP(=O)(O)OP(=O)(O)OP(=O)(O)O)O2)c(=O)[nH]c1=O (stereo unspecified)
4. Nc1ncn(C2OC(CO)C(O)C2O)c(=O)n1 (stereo unspecified)
5. CC(C)c1ccc(-c2cc(=O)c3ccccc3o2)cc1
6. NC(=O)c1cccc2[nH]c(-c3ccc(C4CCCN4)cc3F)nc12 (stereo unspecified)
7. CC1OC(CC(=O)O)CC2=C1C(=O)c1c(O)cccc1C2=O (stereo unspecified)
8. O=C1N=c2ccccc2=C1c1c(O)[nH]c2ccccc12

## Output
9.14
-3.53
27.1
-12.6
-39.8
0.81
100
-36.8

Could you report inhibition for every entry in the following list?
1. COc1cccc2c1C(=O)c1c(O)c3c(c(O)c1C2=O)CC(O)(C(C)=O)CC3OC1CC(N)C(O)C(C)O1 (stereo unspecified)
2. Cn1cc(-c2cnn3c(N)c(Br)c([C@H]4CCCNC4)nc23)cn1
3. C=CC1=C(C)C2=CC3=NC(=C(CC(=O)O)C4=NC(=C(C)C4=C(O)O)C=c4[nH]c(c(C)c4CC)=CC1=N2)C(CCC(=O)O)C3C (stereo unspecified)
4. CC1CNC(=O)NC1=O (stereo unspecified)
5. Cc1cc(C#N)cc(C)c1Oc1nc(Nc2ccc(C#N)cc2)nc(N)c1Br
6. NC(=S)NN=Cc1ncccc1N

## Output
1. 98.8
2. 4.42
3. -29.2
4. -55.6
5. -12.9
6. -17.3

Could you report inhibition for every entry in the following list?
1. COc1cccc2c1C(=O)c1c(O)c3c(c(O)c1C2=O)CC(O)(C(=O)CO)CC3OC1CC(N)C(OC2CCCCO2)C(C)O1 (stereo unspecified)
2. Nc1ccccc1NC(=O)c1cnccn1
3. Cc1ccc(NC(=O)CCCCCC(=O)Nc2ccccc2N)cc1

## Output
1. 23.4
2. -6.35
3. 11.7

Could you report inhibition for every entry in the following list?
1. Cc1cc(C=CC#N)cc(C)c1Nc1ccnc(Nc2ccc(C#N)cc2)n1
2. N#Cc1ccc(OC2CCC(NC(=O)CCSc3nc4ccccc4c(=O)[nH]3)CC2)cc1 (stereo unspecified)

## Output
1: -9.74; 2: 1.42
